Consider the following compounds; for each one, report its IC50.
Species: Rattus norvegicus
method: Inhibitory concentration against lipid peroxidation in rat
Assay type: functional, organism-based
Answers are plain numbers, in µM.

Please review the following examples before continuing.
Query: Please look up its IC50: COC1=C(OC)C(=O)C(c2ccccc2)=C(C)C1=O
Response: 39.4

Query: Please look up its IC50: CC1=CC(=O)c2ccccc2C1=O [MENADIONE]
Response: 12.2

Query: Please look up its IC50: CC1=C(Cl)C(=O)c2ccccc2C1=O
Response: 1.41

Continuing:
Query: Please look up its IC50: CC1=C(Br)C(=O)c2ccccc2C1=O
Response: 1.1

Data credit: ChEMBL document CHEMBL1144324
